Observed Ki, system Rat 5-HT2A (Rattus norvegicus, UniProt P14842).
quantity: Ki (nM)

>>> print(df.to_string())
                                    molecule  quantity  quantitative_result
 0  CC(C)n1cc2c3c(cccc31)C1CC(C(=O)NC3CCCCC3O)CN(C)C1C2 (stereo not drawn) [drawing 85]        Ki                 12.4
 1  Cc1ccc2c3c([nH]c2c1Cl)CNCC3 [drawing 177]        Ki                 15.5
 2  CC(C)n1cc2c3c(cccc31)C1CC(C(=O)N[C@H]3CC[C@@H](O)CC3)CN(C)C1C2 (stereo partly drawn)        Ki                 1.57
 3  CC(C)n1cc2c3c(cccc31)C1CC(C(=O)N[C@H]3CC[C@H](O)CC3)CN(C)C1C2 (stereo partly drawn)        Ki                 2.82
 4  CC(C)n1cc2c3c(cccc31)C1CC(C(=O)NC3CCCCC3)CN(C)C1C2 (stereo not drawn)        Ki                 2.05
 5                  Cc1ccc2c(CCN)c[nH]c2c1Br        Ki                 14.2
 6  CC(C)n1cc2c3c(cccc31)C1CC(C(=O)NC3CCCCC3O)CN(C)C1C2 (stereo not drawn) [drawing 87]        Ki                 2.44
 7               Cc1ccc2c3c([nH]c2c1Br)CNCC3        Ki                 15.7
 8  CC(C)n1cc2c3c(cccc31)C1CC(C(=O)NC3CCCCC3O)CN(C)C1C2 (stereo not drawn) [drawing 84]        Ki                 8.91
 9  CC(C)n1cc2c3c(cccc31)C1CC(C(=O)NC3CCCCC3O)CN(C)C1C2 (stereo not drawn) [drawing 86]        Ki                 2.39
10                Brc1cccc2c3c([nH]c12)CNCC3        Ki                 25.6
11  Cc1cc(Br)c2[nH]c3c(c2c1)CCNC3 [drawing 168]        Ki                   47
12  CN1CC(C(=O)N[C@H]2CC[C@H](O)CC2)CC2c3cccc4[nH]cc(c34)CC21 (stereo partly drawn)        Ki                 5.36
13                  Cc1ccc2c(CCN)c[nH]c2c1Cl        Ki                 20.7
14  CN1CC(C(=O)NC2CCCCC2)CC2c3cccc4[nH]cc(c34)CC21 (stereo not drawn)        Ki                 5.12

====

As shown below, each of these compounds has a reported pA2 (-log KB) value.
Test system: distal colon
Assay: Functional in vitro assay: antagonism of serotonin contraction of rat distal colon longitudinal muscle
Conditions: vs serotonin
Counter-ions that a name gives are not always drawn.
quantity: pA2 (-log KB)

                                   compound       quantity  quantitative_result
0  COc1ccc(C(C)C2NCCc3c2[nH]c2cc(C)c(C)cc32)cc1OC (racemic)  pA2 (-log KB)                  7.2
1  COc1ccc(CC2NCCc3c2[nH]c2ccc(C)cc32)cc1OC (stereo not drawn) [Example 20, hydrochloride]  pA2 (-log KB)                  7.8
2                Cc1ccc2c3c([nH]c2c1C)CNCC3  pA2 (-log KB)                  7.5
